Target: Sko1 (UniProt Q02100)
Sequence: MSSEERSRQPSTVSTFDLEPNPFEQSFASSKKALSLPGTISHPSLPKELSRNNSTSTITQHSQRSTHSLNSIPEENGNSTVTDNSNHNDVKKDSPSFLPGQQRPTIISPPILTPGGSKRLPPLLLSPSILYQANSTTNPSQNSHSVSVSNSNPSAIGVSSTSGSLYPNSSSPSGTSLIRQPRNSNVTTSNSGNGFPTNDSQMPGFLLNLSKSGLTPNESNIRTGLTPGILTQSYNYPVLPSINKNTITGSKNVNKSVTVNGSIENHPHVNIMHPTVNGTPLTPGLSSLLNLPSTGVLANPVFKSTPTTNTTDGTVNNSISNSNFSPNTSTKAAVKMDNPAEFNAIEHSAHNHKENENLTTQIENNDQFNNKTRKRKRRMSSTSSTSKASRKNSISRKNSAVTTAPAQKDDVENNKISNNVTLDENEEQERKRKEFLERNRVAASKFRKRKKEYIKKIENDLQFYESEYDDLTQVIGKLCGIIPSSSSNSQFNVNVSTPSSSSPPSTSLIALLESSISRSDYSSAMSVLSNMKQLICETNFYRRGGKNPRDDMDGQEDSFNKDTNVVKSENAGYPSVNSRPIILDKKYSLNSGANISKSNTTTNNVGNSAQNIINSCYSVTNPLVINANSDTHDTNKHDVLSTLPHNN
Experiment: PBM E-score (8-mer binding enrichment) (E-score (-0.5 to 0.5)); higher = stronger / more preferred TF binding
Settings: protein concentration: 200 nM; construct: GST-full length
Whole data set: some 33,000 sequences, median “E-score (-0.5 to 0.5)” near -0.032, cut for the highest 2% near 0.36. This is one part of a sample in which the highest values are shown more often than they occur.
Quantity Kind: PBM E-score
Lab note: record the figure alone, no unit after it.

Notebook: CGTGTGGC , PBM E-score read as 0.152

Record summary for TAACGCCA : reported PBM E-score = 0.144

For this sequence ( AGGCCCCG ), measured PBM E-score is -0.372

Reported PBM E-score of AGTGTGGG : -0.197

Briefly, PBM E-score measured for CACCAGCA : 0.0552

Per the records, this sequence ( AGCGTCAG ) has PBM E-score equal to 0.154

// sample GAACGTCA , its PBM E-score was 0.456

Short answer for ATCATATA : PBM E-score was 0.244

Form field PBM E-score, entry ATAATATA : 0.268

The reported PBM E-score of the sequence TCGACGCA was 0.0313

Just so you know, measured PBM E-score for CTTTGGAA came out at -0.0181

// field: PBM E-score; key: GATAGAGA ; value = -0.084

Consider ATCATAGA . Its measured PBM E-score is 0.205

What the record says about ACCGCCTC : PBM E-score is -0.312

Lab note: CTAATTTA gave PBM E-score of 0.261

Record ACCGTCAA , field PBM E-score: 0.00527

The sequence listed as ATGACAAA shows PBM E-score equal to 0.154

Per the record, AAACGTCA has PBM E-score of 0.47

get_value(item= CCGACCGG , readout=PBM E-score) returns -0.294

Reported PBM E-score of AAACGTCT : 0.341

For reference, reported PBM E-score for GAACGTCC stands at 0.117

PBM E-score reported for this sequence ATCATAAA : 0.175

The recorded PBM E-score for GTAATTTA is 0.366

The sequence GTCATAAA showed PBM E-score equal to 0.364

// CTTCGTCA : PBM E-score value = 0.412

So for GTAATATA , the logged PBM E-score turned out to be 0.374

Entry under test: GTCATATA . Its PBM E-score was 0.373

response.value for CCTACAGG (field: PBM E-score) = -0.365

// PBM E-score value for CTGAATAC : 0.15

Field PBM E-score (entry CCCTGATA ) reads -0.149

Notebook: AGCGTCAT , PBM E-score read as 0.445

GET /value?item= CTTCAATA &field=PBM E-score returns 0.197

Per the record, ACAGAGAG has PBM E-score of -0.274

Entry CAACGTCA — recorded PBM E-score = 0.47

In plain terms, CTAATATA has a documented PBM E-score of 0.302

Recorded result, ATCGTCAT , PBM E-score: 0.469

Per the record, CATTGAGG has PBM E-score of -0.021

The recorded PBM E-score for CGGAGAGA is -0.15

Per the record, ACAAACCA has PBM E-score of -0.0895

Item: AGATTTCG | PBM E-score: 0.114

The sequence AGGAGCCA showed PBM E-score equal to -0.258

Briefly, PBM E-score measured for ACTTTCGG : 0.0182

Input CTCCGCCC . Output PBM E-score: -0.254

Input CTCATAGA . Output PBM E-score: 0.00332

Value of PBM E-score reported for the sequence ACGATTTA is 0.328

According to the records, this sequence GTGACGAA displays PBM E-score of 0.446

---

Target: Sko1 (UniProt Q02100)
Sequence: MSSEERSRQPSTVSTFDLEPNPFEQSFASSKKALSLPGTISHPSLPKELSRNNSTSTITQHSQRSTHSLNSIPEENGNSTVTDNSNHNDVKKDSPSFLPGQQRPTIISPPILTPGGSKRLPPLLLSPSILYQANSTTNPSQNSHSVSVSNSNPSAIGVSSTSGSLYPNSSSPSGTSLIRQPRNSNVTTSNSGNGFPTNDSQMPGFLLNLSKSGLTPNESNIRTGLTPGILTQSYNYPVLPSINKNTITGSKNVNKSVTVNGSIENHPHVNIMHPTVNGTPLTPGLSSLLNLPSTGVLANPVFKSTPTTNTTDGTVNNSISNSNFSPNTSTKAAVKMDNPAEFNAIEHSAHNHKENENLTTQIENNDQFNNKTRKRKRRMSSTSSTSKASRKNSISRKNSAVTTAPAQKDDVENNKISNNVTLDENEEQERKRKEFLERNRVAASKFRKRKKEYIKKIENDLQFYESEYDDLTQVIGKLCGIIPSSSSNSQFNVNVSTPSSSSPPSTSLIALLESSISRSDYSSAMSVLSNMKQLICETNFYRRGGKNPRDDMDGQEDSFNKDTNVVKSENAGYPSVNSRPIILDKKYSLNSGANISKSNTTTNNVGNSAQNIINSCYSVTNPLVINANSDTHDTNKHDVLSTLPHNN
Assay: PBM E-score (8-mer binding enrichment) (E-score (-0.5 to 0.5)); higher = stronger / more preferred TF binding
Conditions: protein concentration: 200 nM; construct: GST-full length
In all, about 33,000 sequences were measured (“E-score (-0.5 to 0.5)”: median about -0.032, highest 2% from about 0.36 on). This excerpt belongs to a sample that is enriched for the highest values.
Tick 1.0 if PBM E-score is 0.09 or greater. Tick 0.0 if PBM E-score is less than 0.09.

query: Confirm if PBM E-score reported for the sequence GCCTAGAA is 0.09 or above.
result: 0.0

query: Form field: PBM E-score at least 0.09? Entry: ATGTCATA
result: 1.0

query: PBM E-score >= 0.09 for ATGTCAGC ?
result: 1.0

query: Identify whether the reported PBM E-score of the following sequence is 0.09 or greater: GAGAACCA
result: 0.0

query: Can CACACGGC be said to have PBM E-score at or above 0.09?
result: 0.0

query: Is it the case that GAGACGTA has PBM E-score reaching or exceeding 0.09?
result: 1.0

query: Kindly determine if PBM E-score recorded for AGGTTGCA is above or exactly 0.09.
result: 0.0

query: Quick check, PBM E-score >= 0.09? AACACAAA
result: 0.0

query: PBM E-score >= 0.09 for GGACTCGA ?
result: 0.0

query: Test whether the sequence CCCATCGC records PBM E-score of 0.09 or higher.
result: 0.0

query: Decide: is the reported value of PBM E-score for GGGATAGA equal to or greater than 0.09?
result: 0.0

query: Tell me whether PBM E-score is at least 0.09 here: CACACATA
result: 0.0

query: Tell me whether PBM E-score is at least 0.09 here: CAGGCAGC
result: 0.0

query: // inclusive: PBM E-score at least 0.09? input: CGCTCTCA
result: 0.0

query: Quick check: does ATGTCACG have PBM E-score greater than or equal to 0.09?
result: 1.0

query: Has GCAGATGA a recorded PBM E-score greater than or equal to 0.09?
result: 0.0

query: Is it the case that ATTGGCAA has PBM E-score reaching or exceeding 0.09?
result: 1.0

query: Given the entry CGACGTAA , answer whether its PBM E-score meets or surpasses 0.09.
result: 1.0

query: PBM E-score >= 0.09 for AGAGATGG ?
result: 0.0

query: Decide: PBM E-score of AAGACGTG >= 0.09?
result: 1.0

query: Say whether CACACGTG shows PBM E-score of 0.09 or more.
result: 1.0

query: Decide: PBM E-score of ATGTCAAG >= 0.09?
result: 1.0

query: Could you please find out whether AGATGCAC has PBM E-score that meets 0.09 or exceeds it?
result: 0.0

query: Textbook exercise: given the entry TCCTTGCA , state whether its PBM E-score is greater than or equal to 0.09.
result: 0.0

query: Assess whether reported PBM E-score for ATGTCATG sits at 0.09 or higher.
result: 1.0

query: Given the entry GCGTCCAC , answer whether its PBM E-score meets or surpasses 0.09.
result: 0.0

query: Entry ACATTCTA : is its PBM E-score no less than 0.09?
result: 1.0

query: Please tell me: is the sequence CATAAGAC at or over 0.09 in terms of PBM E-score?
result: 1.0

query: Determine whether this sequence has PBM E-score no lower than 0.09: CTGTCATA
result: 1.0

query: Threshold query (PBM E-score >= 0.09) on CACACAAA
result: 1.0

query: In plain terms: is recorded PBM E-score at least 0.09 for CACACGCC ?
result: 0.0

query: Textbook exercise: given the entry CTGTCATC , state whether its PBM E-score is greater than or equal to 0.09.
result: 0.0

query: Could you tell me if the measured PBM E-score of ACGTAGGG reaches 0.09 or more?
result: 1.0

query: Is PBM E-score for AACACGAG at or above 0.09?
result: 0.0

query: Hi, just wondering whether AACCGCTT shows PBM E-score of 0.09 or higher.
result: 0.0

query: Could you verify whether the entry AACCGCAC shows PBM E-score of no less than 0.09?
result: 0.0

query: # check: PBM E-score of ATGCAAAC is greater than or equal to 0.09
result: 1.0

query: Is reported PBM E-score greater than or equal to 0.09 here: CGACGTGA
result: 1.0

query: hey, is PBM E-score for this one >= 0.09? CGTTGAGA
result: 0.0

query: # bool: PBM E-score of AACTCCTT >= 0.09
result: 0.0

query: Given ACGTAGGA , state whether its PBM E-score is at least 0.09.
result: 1.0

query: Hello, I need to know if GCTCAAAC has measured PBM E-score not below 0.09. Thanks!
result: 0.0

query: Could you verify whether the entry CTAGAAGA shows PBM E-score of no less than 0.09?
result: 0.0

query: Given the entry TACACGAA , answer whether its PBM E-score meets or surpasses 0.09.
result: 1.0

query: Could you please find out whether GTGTCATA has PBM E-score that meets 0.09 or exceeds it?
result: 1.0

query: hey, is PBM E-score for this one >= 0.09? CACACGTC
result: 1.0
